experimental_target: T1, human A-beta(1-40) peptide, monomeric (BAM) (human, biotin at the C-terminus in capture ELISA, SPR and TR-FRET; not biotinylated where coated directly (Example 7))
T1 construct: synthetic peptide (Anaspec), TFA/HFIP treated to give monomer; also called monomeric A-beta
test_name: TR-FRET competition, mean IC50
Reported IC50 values are given for each entry in this list.
// note: answer is a bare numeric in nM

# binder, reported_metric, reported_result
rows = [
    ("ABII015 (VHH, humanized variant of ABII002) VHH: EVQLLESGGGLVLPGGSLRLSCVHSGPTFRTDTMGWFRQAPGKGREFVAAVTWNSGRINYADSVKGRFTVSRDNTRNAAYLQMSGLKAEDTAVYYCTAHRFVVGGNRVEDWRYWGQGTLVTVSS", "IC50", 1.8),
    ("ABII014 (VHH, humanized variant of ABII002) VHH: EVQLLESGGGLVLPGGSLRLSCVHSGPTFRTDTMGWFRQAPGKGREFVAAVTWNSGRINYADSVKGRFTVSRDNTRNAAYLQMSGLRDEDTAVYYCTAHRFVVGGNRVEDWRYWGQGTLVTVSS", "IC50", 1.3),
    ("ABII016 (VHH, humanized variant of ABII002) VHH: EVQLLESGGGLVLPGGSLRLSCVHSGPTFRTDTMGWFRQAPGKGREFVAAVTWNSGRINYADSVKGRFTVSRDNTRNAAYLQMSGLKPEDTAVYYCTAHRFVVGGNRVEDWRYWGQGTLVTVSS", "IC50", 2.4),
    ("ABII030 (VHH, humanized variant of ABII002) VHH: EVQLLESGGGLVQPGGSLRLSCVHSGPTFRTDTMGWFRQAPGKGREFVAAVTWNSGRINYADSVKGRFTISRDNSKNAVYLQMNSLRPEDTAVYYCAAHRFVVGGNRVEDWRYWGQGTLVTVSS", "IC50", 12),
    ("ABII026 (VHH, humanized variant of ABII002) VHH: EVQLLESGGGLVQPGGSLRLSCAHSGPTFRTDTMGWFRQAPGKGREFVAAVTWNSGRINYADSVKGRFTISRDNSKNTAYLQMNSLRPEDTAVYYCAAHRFVVGGNRVEDWRYWGQGTLVTVSS", "IC50", 5.1),
]

Query :: Suppose we examine the binder ABII023 (VHH, humanized variant of ABII002) VHH: EVQLLESGGGLVQPGGSLRLSCAHSGPTFRTDTMGWFRQAPGKGREFVAAVTWNSGRINYADSVKGRFTISRDNSKNAAYLQMNSLRPEDTAVYYCAAHRFVVGGNRVEDWRYWGQGTLVTVSS ; what IC50 value has been reported?
Result :: 5.8

Query :: Suppose we examine the binder ABII027 (VHH, humanized variant of ABII002) VHH: EVQLLESGGGLVQPGGSLRLSCAHSGPTFRTDTMGWFRQAPGKGREFVAAVTWNSGRINYADSVKGRFTISRDNSKNTAYLQMSSLRPEDTAVYYCAAHRFVVGGNRVEDWRYWGQGTLVTVSS ; what IC50 value has been reported?
Result :: 4.4

Query :: Suppose we examine the binder ABII006 (VHH, humanized variant of ABII002) VHH: EVQLLESGGGLVLPGGSLRLSCVASGPTFRTDTMGWFRQAPGKGREFVAAVTWNSGRINYADSVKGRFTVSRDNTRNAAYLQMSGLKDEDTAVYYCTAHRFVVGGNRVEDWRYWGQGTLVTVSS ; what IC50 value has been reported?
Result :: 80
